Experiment: Mean plasma and tumor concentration, 7-day study in SCID mice
Format: in vivo
Conditions: mouse, plasma, po, female SCID mice, 200 mg/kg P.O. BID, read-out: Mean Plasma Conc
ENDPOINT NAME: concentration at 7 day (ng/mL)
Numbers only; they are read as ng/mL.

The compound listed as COc1cc(C)[nH]c(=O)c1CNC(=O)c1c(C)n(C(C)C2CCN(C)C(C(F)(F)F)C2)c2ccccc12 (single isomer, unassigned) shows concentration at 7 day equal to 1600

----------
Target: PRC2 containing wt EZH2 (Homo sapiens)
Construct: made in house
Sequence (Q15910 whole entry): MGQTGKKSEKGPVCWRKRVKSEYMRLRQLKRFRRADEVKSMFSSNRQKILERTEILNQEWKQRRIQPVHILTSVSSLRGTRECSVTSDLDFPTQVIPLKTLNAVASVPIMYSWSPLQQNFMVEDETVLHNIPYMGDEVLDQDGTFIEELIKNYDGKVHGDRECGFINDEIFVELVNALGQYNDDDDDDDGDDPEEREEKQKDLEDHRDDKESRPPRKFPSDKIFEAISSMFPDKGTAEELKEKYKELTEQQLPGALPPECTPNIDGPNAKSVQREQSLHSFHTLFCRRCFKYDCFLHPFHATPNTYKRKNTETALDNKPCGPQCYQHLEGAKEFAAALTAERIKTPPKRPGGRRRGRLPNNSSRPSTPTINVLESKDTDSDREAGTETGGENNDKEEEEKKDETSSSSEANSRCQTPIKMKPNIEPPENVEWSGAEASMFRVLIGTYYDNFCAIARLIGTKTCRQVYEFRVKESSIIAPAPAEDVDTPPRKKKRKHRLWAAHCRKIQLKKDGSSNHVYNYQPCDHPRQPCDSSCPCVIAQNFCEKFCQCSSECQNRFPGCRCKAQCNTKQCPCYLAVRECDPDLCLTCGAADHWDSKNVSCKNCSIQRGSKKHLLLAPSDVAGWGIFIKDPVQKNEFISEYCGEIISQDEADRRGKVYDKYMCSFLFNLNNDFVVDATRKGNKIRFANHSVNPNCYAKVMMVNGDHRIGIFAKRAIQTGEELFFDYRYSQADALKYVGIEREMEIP
Sequence (O75530 whole entry partner): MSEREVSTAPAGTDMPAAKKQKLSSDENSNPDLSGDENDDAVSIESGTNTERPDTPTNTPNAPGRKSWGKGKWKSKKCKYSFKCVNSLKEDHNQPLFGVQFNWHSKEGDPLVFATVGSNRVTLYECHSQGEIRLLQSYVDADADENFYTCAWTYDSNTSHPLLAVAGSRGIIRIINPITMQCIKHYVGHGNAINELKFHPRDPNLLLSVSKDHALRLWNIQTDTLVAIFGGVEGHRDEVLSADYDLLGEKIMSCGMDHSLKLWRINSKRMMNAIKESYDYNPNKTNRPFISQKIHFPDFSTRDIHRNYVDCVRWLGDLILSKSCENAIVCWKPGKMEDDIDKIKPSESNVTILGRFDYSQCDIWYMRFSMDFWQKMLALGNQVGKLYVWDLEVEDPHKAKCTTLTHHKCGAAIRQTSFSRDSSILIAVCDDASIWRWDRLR
Sequence (Q15022 whole entry partner): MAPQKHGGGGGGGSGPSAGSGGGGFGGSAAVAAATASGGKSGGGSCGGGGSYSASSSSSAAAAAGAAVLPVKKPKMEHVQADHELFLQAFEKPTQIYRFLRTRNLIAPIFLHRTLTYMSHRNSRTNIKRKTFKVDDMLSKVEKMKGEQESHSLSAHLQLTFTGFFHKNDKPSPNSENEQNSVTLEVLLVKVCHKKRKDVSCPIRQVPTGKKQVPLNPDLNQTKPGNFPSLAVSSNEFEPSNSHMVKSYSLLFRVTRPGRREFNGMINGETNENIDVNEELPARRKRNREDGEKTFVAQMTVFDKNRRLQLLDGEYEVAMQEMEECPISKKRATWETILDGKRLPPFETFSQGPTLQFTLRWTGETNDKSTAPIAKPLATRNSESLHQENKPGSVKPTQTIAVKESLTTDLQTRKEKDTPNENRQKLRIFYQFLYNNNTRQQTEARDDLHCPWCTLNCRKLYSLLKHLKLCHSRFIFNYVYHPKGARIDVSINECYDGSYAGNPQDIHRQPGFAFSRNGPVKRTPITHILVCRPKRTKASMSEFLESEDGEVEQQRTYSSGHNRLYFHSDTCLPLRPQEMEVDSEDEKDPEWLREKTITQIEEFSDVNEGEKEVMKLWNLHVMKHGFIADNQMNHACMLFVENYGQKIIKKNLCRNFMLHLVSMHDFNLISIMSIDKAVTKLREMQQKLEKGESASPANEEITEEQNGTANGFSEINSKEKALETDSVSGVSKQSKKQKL
Sequence (Q09028 whole entry partner): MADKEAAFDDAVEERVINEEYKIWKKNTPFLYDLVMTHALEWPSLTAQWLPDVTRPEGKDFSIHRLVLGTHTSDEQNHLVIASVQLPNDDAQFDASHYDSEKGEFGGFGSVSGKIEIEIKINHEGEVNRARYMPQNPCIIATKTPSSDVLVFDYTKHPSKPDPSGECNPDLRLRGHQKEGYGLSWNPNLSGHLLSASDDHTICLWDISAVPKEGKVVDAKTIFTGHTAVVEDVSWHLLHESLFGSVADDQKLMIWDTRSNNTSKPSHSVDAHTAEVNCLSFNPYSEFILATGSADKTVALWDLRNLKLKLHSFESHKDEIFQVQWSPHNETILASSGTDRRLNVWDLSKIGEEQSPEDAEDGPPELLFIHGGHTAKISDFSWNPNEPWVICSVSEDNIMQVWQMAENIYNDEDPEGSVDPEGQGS
Sequence (Q6ZN18 whole entry partner): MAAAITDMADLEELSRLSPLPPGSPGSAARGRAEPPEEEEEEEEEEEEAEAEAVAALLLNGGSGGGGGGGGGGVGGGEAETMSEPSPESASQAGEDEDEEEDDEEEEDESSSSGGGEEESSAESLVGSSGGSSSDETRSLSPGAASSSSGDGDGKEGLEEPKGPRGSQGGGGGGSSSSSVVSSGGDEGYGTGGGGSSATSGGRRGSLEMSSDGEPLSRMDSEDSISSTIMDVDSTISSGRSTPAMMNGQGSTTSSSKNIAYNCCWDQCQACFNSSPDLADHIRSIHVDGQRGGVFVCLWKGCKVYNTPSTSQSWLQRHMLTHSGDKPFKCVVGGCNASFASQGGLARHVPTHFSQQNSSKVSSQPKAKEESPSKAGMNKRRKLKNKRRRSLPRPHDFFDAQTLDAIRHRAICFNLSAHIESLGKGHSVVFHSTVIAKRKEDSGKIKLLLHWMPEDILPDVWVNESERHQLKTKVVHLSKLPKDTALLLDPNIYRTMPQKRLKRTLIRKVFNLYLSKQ
Experiment: EZH2 pep BSA Brij 4.0 LowE (IC50): 3H-SAM incorporation into biotinylated H3 peptide
Format: biochemical
Details: 20 pM PRC2 wt EZH2, 0.9 μM 3H-SAM, biotinylated H3 peptide substrate, 2 μM H3K27me3 activating peptide; read-out: EZH2 pep BSA Brij 4.0 LowE (IC50)
Assignment: determine reported IC50 for the given molecules.

The molecule listed as COc1cc(C)[nH]c(=O)c1CNC(=O)c1c(C)n(C(C)C2CCN(C(C)=O)C(CC(F)(F)F)C2)c2ccccc12 (stereo not drawn) [Compound 81] shows IC50 equal to < 100 nM

The molecule listed as COc1cc(C)[nH]c(=O)c1CNC(=O)c1c(C)n(C(C)C2CCN(C)C(c3cccc(F)c3)C2)c2ccccc12 (stereo not drawn) [Compound 55] shows IC50 equal to < 100 nM

The molecule listed as COc1cc(C)[nH]c(=O)c1CNC(=O)c1c(C)n(C(C)C2CCNC(c3cccc(C(F)(F)F)c3)C2)c2ccccc12 (stereo not drawn) [Compound 77] shows IC50 equal to < 100 nM

Hello, the source for this data is patent US20180037568A1, in case you need it.
